For each record, write down the corresponding IC50 at 72 h.
assay: Cytotoxicity against human L02 cells after 72 hrs by CCK-8 assay; assay type: toxicity, cell-based
Answers are plain numbers, in µM.

Would you please look over these solved cases?
smiles.structure | unit.label | reported.value
CCOC(=O)/C=C1/C(=O)Nc2ccccc21 | µM | 4.23
Cc1ccc2c(c1)/C(=C\C(=O)OC(C)(C)C)C(=O)N2 | µM | 2.68
CN1C(=O)/C(=C/C(=O)Oc2ccc3ccccc3c2)c2ccccc21 | µM | 46.6

Give IC50 at 72 h for each listed item.
1. COc1ccc2c(c1)/C(=C\C(=O)OC(C)(C)C)C(=O)N2
2. CN1C(=O)/C(=C/C(=O)OC(C)(C)C)c2ccccc21
3. CCCCc1ccc2c(c1)/C(=C\C(=O)OC(C)(C)C)C(=O)N2
4. COC(=O)/C=C1/C(=O)Nc2ccccc21
5. CN1C(=O)/C(=C/C(=O)Oc2ccccc2)c2ccccc21
6. CC(C)(C)OC(=O)/C=C1/C(=O)Nc2c(Cl)cccc21
7. CC(C)c1ccc2c(c1)/C(=C\C(=O)OC(C)(C)C)C(=O)N2

1: 3.82; 2: 4.32; 3: 4.4; 4: 7.05; 5: 22.7; 6: 4.8; 7: 3.36

###

For each record, write down the corresponding inhibition of growth at 20 µM.
experiment: Cytotoxicity against human Saos2 cells assessed as growth inhibition at 20 uM after 72 hrs by CCK-8 assay; type: functional; details: SAOS-2, 72 h, read-out: GI

compound | attribute.measured | reported.value
Cc1ccc2c(c1)/C(=C\C(=O)OC(C)(C)C)C(=O)N2 | inhibition of growth at 20 µM | 83.7%
Cc1c(Cl)ccc2c1NC(=O)/C2=C/C(=O)OC(C)(C)C | inhibition of growth at 20 µM | 82.6%
CN1C(=O)/C(=C/C(=O)OC(C)(C)C)c2ccccc21 | inhibition of growth at 20 µM | 81.9%
CC(C)(C)OC(=O)CC1C(=O)Nc2ccccc21 (stereo not drawn) | inhibition of growth at 20 µM | 1.5%

Give inhibition of growth at 20 µM for each listed item.
1. CC(C)(C)OC(=O)/C=C1/C(=O)N(Cc2ccccc2)c2ccccc21
2. O=C(O)/C=C1/C(=O)Nc2ccccc21
3. CC(=O)O[C@H]1C(=O)[C@@]2(C)[C@H]([C@H](OC(=O)c3ccccc3)[C@]3(O)C[C@H](OC(=O)[C@H](O)[C@@H](NC(=O)c4ccccc4)c4ccccc4)C(C)=C1C3(C)C)[C@]1(OC(C)=O)CO[C@@H]1C[C@@H]2O
4. COC(=O)/C=C1/C(=O)Nc2ccccc21

1. 82.1%
2. 8.9%
3. 77.4%
4. 78.6%

###

assay: Cytotoxicity against human HCT116 cells after 72 hrs by CCK-8 assay; type: functional, cell-based; conditions: HCT-116, 72 h
attribute.measured: IC50 (µM)
Numbers only, in µM.

smiles.structure | unit.label | IC50
CC(C)(C)OC(=O)/C=C1/C(=O)Nc2ccccc21 | µM | 2.64

Kindly review the next compound as well.
Item `CC(C)(C)OC(=O)/C=C1/C(=O)Nc2ccc(Cl)cc21` has what recorded IC50?
5.5

###

assay: Cytotoxicity against human L02 cells; type: toxicity, cell-based
For each record, write down the corresponding pIC50.
Numbers only, as −log10 of the molar value.

Would you please look over these solved cases?
smiles.structure | reported.value
CN1C(=O)/C(=C/C(=O)OC(C)(C)C)c2ccccc21 | 4.91
CC(C)(C)OC(=O)/C=C1/C(=O)Nc2ccccc21 | 5.21

Kindly review the next compound as well.
Item `CC(C)(C)OC(=O)/C=C1/C(=O)Nc2ccc(Cl)cc21` has what recorded pIC50?
5.21

###

For each record, write down the corresponding inhibition of growth at 20 µM.
test: Cytotoxicity against human Saos2 cells assessed as growth inhibition at 20 uM after 72 hrs by CCK-8 assay; format: functional; conditions: SAOS-2, 72 h, read-out: GI
Answers are plain numbers, in %.

smiles.structure | unit.label | reported.value
CC(C)(C)OC(=O)/C=C1/C(=O)Nc2ccc(OC(F)(F)F)cc21 | % | 80.1
CC(C)c1ccc2c(c1)/C(=C\C(=O)OC(C)(C)C)C(=O)N2 | % | 82.8
CC(C)(C)OC(=O)/C=C1/C(=O)Nc2c(Cl)cccc21 | % | 82.4
COc1ccc2c(c1)NC(=O)/C2=C/C(=O)OC(C)(C)C | % | 83.2

Give inhibition of growth at 20 µM for each listed item.
1. CC(C)(C)OC(=O)/C=C1/C(=O)Nc2ccc(Cl)cc21
2. COc1ccc2c(c1)/C(=C\C(=O)OC(C)(C)C)C(=O)N2
3. CCOC(=O)/C=C1/C(=O)Nc2ccccc21
4. COc1cccc2c1NC(=O)/C2=C/C(=O)OC(C)(C)C
5. CC(C)(C)OC(=O)/C=C1/C(=O)Nc2ccccc21
6. CC(C)(C)OC(=O)/C=C1/C(=O)Nc2ccc([N+](=O)[O-])cc21

1. 82.3
2. 82
3. 81.4
4. 81.1
5. 83.3
6. 82.8

Item `CCCCc1ccc2c(c1)/C(=C\C(=O)OC(C)(C)C)C(=O)N2` has what recorded inhibition of growth at 20 µM?
84.2

###

experiment: Cytotoxicity against human HepG2 cells after 72 hrs by CCK-8 assay; type: functional, cell-based; settings: HepG2, 72 h
For each record, write down the corresponding pIC50.
Answers are plain numbers, as −log10 of the molar value.

smiles.structure | pIC50
CC(C)(C)OC(=O)/C=C1/C(=O)Nc2ccccc21 | 5.33

Item `CC(C)(C)OC(=O)/C=C1/C(=O)Nc2ccc(Cl)cc21` has what recorded pIC50?
5.05

###

experiment: Cytotoxicity against human L02 cells assessed as growth inhibition at 20 uM after 72 hrs by CCK-8 assay; type: toxicity, cell-based; settings: read-out: GI
attribute.measured: inhibition at 72 h, 20 µM

Would you please look over these solved cases?
molecule | inhibition at 72 h, 20 µM
CC(=O)O[C@H]1C(=O)[C@@]2(C)[C@H]([C@H](OC(=O)c3ccccc3)[C@]3(O)C[C@H](OC(=O)[C@H](O)[C@@H](NC(=O)c4ccccc4)c4ccccc4)C(C)=C1C3(C)C)[C@]1(OC(C)=O)CO[C@@H]1C[C@@H]2O [PACLITAXEL] | 61.5%
COc1ccc2c(c1)NC(=O)/C2=C/C(=O)OC(C)(C)C | 63.6%
CC(C)(C)OC(=O)/C=C1/C(=O)N(Cc2ccccc2)c2ccccc21 | 62%
CN1C(=O)/C(=C/C(=O)OC(C)(C)C)c2ccccc21 | 61.4%

Give inhibition at 72 h, 20 µM for each listed item.
1. CC(C)(C)OC(=O)CC1C(=O)Nc2ccccc21 (configuration not stated)
2. CC(C)(C)OC(=O)/C=C1/C(=O)Nc2ccc(Cl)cc21
3. CC(C)(C)OC(=O)/C=C1/C(=O)Nc2c(Cl)cccc21

1: 0.1%; 2: 63.3%; 3: 64%

###

test: Cytotoxicity against human MDA-MB-231 cells assessed as growth inhibition at 20 uM after 72 hrs by CCK-8 assay; format: functional; conditions: MDA-MB-231, 72 h, read-out: GI
attribute.measured: inhibition of growth at 20 µM
Units required after the number.

Would you please look over these solved cases?
compound | inhibition of growth at 20 µM
Cc1ccc2c(c1)/C(=C\C(=O)OC(C)(C)C)C(=O)N2 | 87.8%
CC(C)(C)OC(=O)/C=C1/C(=O)N(Cc2ccccc2)c2ccccc21 | 87.1%
O=C(O)/C=C1/C(=O)Nc2ccccc21 | 1%
CC(C)(C)OC(=O)/C=C1/C(=O)Nc2ccc(OC(F)(F)F)cc21 | 86.9%
CC(C)(C)OC(=O)CC1C(=O)Nc2ccccc21 (centres undefined) | 3.7%

Give inhibition of growth at 20 µM for each listed item.
1. COc1cccc2c1NC(=O)/C2=C/C(=O)OC(C)(C)C
2. CC(C)(C)OC(=O)/C=C1/C(=O)Nc2ccccc21
3. CC(C)(C)OC(=O)/C=C1/C(=O)Nc2ccc([N+](=O)[O-])cc21
4. CCOC(=O)/C=C1/C(=O)Nc2ccccc21
5. CC(=O)O[C@H]1C(=O)[C@@]2(C)[C@H]([C@H](OC(=O)c3ccccc3)[C@]3(O)C[C@H](OC(=O)[C@H](O)[C@@H](NC(=O)c4ccccc4)c4ccccc4)C(C)=C1C3(C)C)[C@]1(OC(C)=O)CO[C@@H]1C[C@@H]2O [PACLITAXEL]
6. COc1ccc2c(c1)/C(=C\C(=O)OC(C)(C)C)C(=O)N2
7. CN1C(=O)/C(=C/C(=O)OC(C)(C)C)c2ccccc21
8. CC(C)(C)OC(=O)/C=C1/C(=O)Nc2c(Cl)cccc21

1. 86.7%
2. 87.6%
3. 86.9%
4. 86.9%
5. 85.1%
6. 87.6%
7. 86.6%
8. 87.4%

Give inhibition of growth at 20 µM for each listed item.
1. CCCCc1ccc2c(c1)/C(=C\C(=O)OC(C)(C)C)C(=O)N2
2. COC(=O)/C=C1/C(=O)Nc2ccccc21
3. Cc1c(Cl)ccc2c1NC(=O)/C2=C/C(=O)OC(C)(C)C
4. CC(C)(C)OC(=O)/C=C1/C(=O)Nc2ccc(Cl)cc21
5. COc1ccc2c(c1)NC(=O)/C2=C/C(=O)OC(C)(C)C

1: 87.7%; 2: 86.8%; 3: 87.3%; 4: 87.6%; 5: 87.1%

Item `CC(C)c1ccc2c(c1)/C(=C\C(=O)OC(C)(C)C)C(=O)N2` has what recorded inhibition of growth at 20 µM?
87.7%
